Values of pIC50 reported for FGFR1 (Homo sapiens) appear below.
pIC50: −log10 of the molar value. Where a name gives a salt, the structure may show the parent alone.
Quantity Measured: pIC50

[A] CCOC(=O)c1ccc2c(c1)NC(=O)/C2=C(\Nc1ccc2c(c1)CCN2C(=O)CN1CCOCC1)c1ccccc1 [Compound 10 hydrochloride]
[B] COC(=O)c1ccc2c(c1)NC(=O)/C2=C(\Nc1ccc2c(c1)CCN2C(=O)Cn1cncn1)c1ccccc1 [Compound 13 hydrochloride]
Quick check, higher pIC50 between A and B ? Please respond with the label that marks your chosen entry.
B

====

target: PDGFRβ (Homo sapiens, UniProt P09619); construct: purchased BPS; experiment: In vitro enzymology inhibitory activity (Caliper mobility shift kinase assay); assay type: biochemical; conditions: reaction 5 hour at 28° C., FAM-labelled peptide and ATP
Sequence (P09619 33-1106): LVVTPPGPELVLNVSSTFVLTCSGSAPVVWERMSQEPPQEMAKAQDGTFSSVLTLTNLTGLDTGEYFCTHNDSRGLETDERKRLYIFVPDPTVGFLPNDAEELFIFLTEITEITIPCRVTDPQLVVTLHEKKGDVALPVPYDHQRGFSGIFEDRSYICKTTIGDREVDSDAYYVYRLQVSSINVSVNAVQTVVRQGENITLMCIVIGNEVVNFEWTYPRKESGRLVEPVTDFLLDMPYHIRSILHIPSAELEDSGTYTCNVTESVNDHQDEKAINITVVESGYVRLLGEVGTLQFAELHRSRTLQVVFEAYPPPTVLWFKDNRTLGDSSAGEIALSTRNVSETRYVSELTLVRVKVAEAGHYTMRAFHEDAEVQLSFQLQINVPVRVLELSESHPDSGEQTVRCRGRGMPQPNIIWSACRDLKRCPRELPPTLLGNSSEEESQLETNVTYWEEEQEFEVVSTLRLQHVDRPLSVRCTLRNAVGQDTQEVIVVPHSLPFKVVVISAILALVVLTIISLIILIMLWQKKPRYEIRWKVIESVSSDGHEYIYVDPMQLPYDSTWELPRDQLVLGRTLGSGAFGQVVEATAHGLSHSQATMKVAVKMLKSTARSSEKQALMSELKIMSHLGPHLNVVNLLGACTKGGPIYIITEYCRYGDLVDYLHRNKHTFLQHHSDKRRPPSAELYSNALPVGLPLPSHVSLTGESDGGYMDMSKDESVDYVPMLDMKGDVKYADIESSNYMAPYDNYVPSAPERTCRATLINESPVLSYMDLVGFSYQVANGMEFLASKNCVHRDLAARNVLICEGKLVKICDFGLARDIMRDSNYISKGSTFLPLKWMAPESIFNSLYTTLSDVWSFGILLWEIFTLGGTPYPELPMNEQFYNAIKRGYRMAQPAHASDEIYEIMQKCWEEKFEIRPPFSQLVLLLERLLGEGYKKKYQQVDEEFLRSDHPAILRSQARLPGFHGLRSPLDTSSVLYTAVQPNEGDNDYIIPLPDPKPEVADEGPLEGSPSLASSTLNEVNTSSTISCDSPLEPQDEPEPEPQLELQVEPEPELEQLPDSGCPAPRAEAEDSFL
Counter-ions that a name gives are not always drawn.
Quantity Measured: IC50 (nM)

In the examples that follow, each entry is paired with its recorded IC50.
Look up IC50 for this compound: COC(=O)c1ccc2c(c1)NC(=O)/C2=C(\Nc1ccc2c(c1)CCN2C(=O)Cn1cccn1)c1ccccc1 [Compound 14 hydrochloride]
24

Next entry: COC(=O)c1ccc2c(c1)NC(=O)/C2=C(\Nc1ccc2c(c1)CCN2C(=O)Cn1cncn1)c1ccccc1 [Compound 13 hydrochloride]
14

Next entry: COC(=O)c1ccc2c(c1)NC(=O)/C2=C(\Nc1ccc2c(c1)CCN2C(=O)CN(C)C)c1ccccc1 [Compound 2 hydrochloride]
15

Next entry: CCOC(=O)c1ccc2c(c1)NC(=O)/C2=C(\Nc1ccc2c(c1)CCN2C(=O)CN1CCOCC1)c1ccccc1 [Compound 10 hydrochloride]
65

[1] COC(=O)c1ccc2c(c1)NC(=O)/C2=C(\Nc1ccc2c(c1)CCN2C(=O)CN1CCOCC1)c1ccc(F)cc1 [Compound 9 hydrochloride]
[2] COC(=O)c1ccc2c(c1)NC(=O)/C2=C(\Nc1ccc2c(c1)CCN2C(=O)CN1CCCC1=O)c1ccccc1 [Compound 12 hydrochloride]
Form: Entry with minimum IC50 (choose one): 1 / 2 Please respond with the label that marks your chosen entry.
2
